Where do the numbers come from? From PubChem BioAssay AID463203.

subjectOfTest: Glycogen synthase kinase-3 alpha (Homo sapiens) (UniProt P49840)
Sequence (P49840 whole entry, looked up): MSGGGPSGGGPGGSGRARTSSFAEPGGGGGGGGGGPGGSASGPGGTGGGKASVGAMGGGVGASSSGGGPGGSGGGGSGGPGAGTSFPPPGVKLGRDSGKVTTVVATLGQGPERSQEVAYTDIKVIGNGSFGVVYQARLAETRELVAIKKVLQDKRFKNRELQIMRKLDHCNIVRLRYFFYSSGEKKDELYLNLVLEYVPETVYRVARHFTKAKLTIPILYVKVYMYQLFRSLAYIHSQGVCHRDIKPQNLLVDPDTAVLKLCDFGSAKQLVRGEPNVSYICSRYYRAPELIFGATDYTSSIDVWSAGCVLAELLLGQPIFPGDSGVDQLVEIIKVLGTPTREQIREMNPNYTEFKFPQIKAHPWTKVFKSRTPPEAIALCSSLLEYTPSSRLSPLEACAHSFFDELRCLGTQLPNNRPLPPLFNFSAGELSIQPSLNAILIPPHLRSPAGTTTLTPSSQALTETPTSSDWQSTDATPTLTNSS
experimentalDetails: concentration-response blocking of human GSK3A – biochemical, luminescence, cell-free homogeneous, retest, dose response (AID 463203)
conditionDescription: GSK-3 alpha enzyme, ADP-Glo luminescence, 60 min
Active and inactive are the calls of the source.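 The calls were made as follows: active = more than half of replicate measurements showing over 20% loss of kinase signal relative to plate controls; inconclusive = some but at most half of replicates over 20% loss; inactive = no replicate over 20% signal loss.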
Write down the outcome that applies. Available outcomes: yes (1) for active, no (0) for inactive

Recorded results for 4 compounds are shown here.
compound	subjectOfTest	classAssignment
CC(=O)O[C@@H]1[C@@H](O)[C@@H](O)[C@H](Oc2c(-c3ccc(O)cc3)oc3c(CC=C(C)C)c(O)cc(O)c3c2=O)O[C@H]1C	Glycogen synthase kinase-3 alpha (Homo sapiens) (UniProt P49840)	yes (1)
CN(C)C(=O)Oc1ccc(OC(=O)N(C)C)cc1	Glycogen synthase kinase-3 alpha (Homo sapiens) (UniProt P49840)	no (0)
CC(C)(C)C(=O)NC(=S)Nc1sc2c(c1C(N)=O)CCC2	Glycogen synthase kinase-3 alpha (Homo sapiens) (UniProt P49840)	no (0)
O=c1[nH]nc(SCc2nnc(-c3cccc(Cl)c3)o2)n1C1CCCCC1	Glycogen synthase kinase-3 alpha (Homo sapiens) (UniProt P49840)	no (0)

Q. Hey, what did the test say about CCc1c(C)c(C#N)c2nc3ccccc3n2c1NCc1ccccn1 ?
A. yes (1)

Q. Hey, what did the test say about C/C(=N\NC(=O)c1nnn(-c2nonc2N)c1-c1cccs1)c1ccc(O)cc1 ?
A. yes (1)

Q. Hey, what did the test say about NNC(=O)CCCCCCCCCCOCCCCO ?
A. no (0)

Q. Hey, what did the test say about c1cncc(-c2nc3ccccc3[nH]2)c1 ?
A. no (0)

Q. Hey, what did the test say about O=[N+]([O-])c1ccc(Nc2nc(Cl)nc(NCCO)n2)cc1 ?
A. no (0)

Q. Hey, what did the test say about COc1ccc(-c2cn3cccnc3n2)cc1NC(=O)CC(C)C ?
A. no (0)

Q. Hey, what did the test say about COC(=O)c1cnn(C(=O)c2ccccc2Br)c1N ?
A. no (0)

Q. Hey, what did the test say about NC(=O)c1c(NC(=O)CN2C(=O)NC(Cc3ccccc3)C2=O)sc2c1CCC2 (stereo not given) ?
A. yes (1)

Q. Hey, what did the test say about COC(=O)c1ccc2c(=O)[nH]c(COC(=O)c3cccc(S(=O)(=O)N4CCOCC4)c3)nc2c1 ?
A. yes (1)

Q. Hey, what did the test say about O=[N+]([O-])c1ccc(NC2CCCC2)cc1 ?
A. no (0)

Q. Hey, what did the test say about CCc1cc(C(=O)c2ccc(C)cc2)c(NC(=O)CCl)s1 ?
A. no (0)

Q. Hey, what did the test say about Cc1ccc(-c2nc3n(n2)Cc2ccccc2-3)cc1 ?
A. no (0)

Q. Hey, what did the test say about CCc1ccc(NC(=O)N[C@H](C(=O)O)C(C)CC)cc1 (stereo not given in full) ?
A. no (0)

Q. Hey, what did the test say about O=c1[nH]c2c(s1)C(c1ccccc1)C1C3CCC(C3)C1S2 (stereo not given) ?
A. yes (1)

Q. Hey, what did the test say about O=C(CSc1nnc(-c2ccc(O)cc2)o1)Nc1cccc(O)c1 ?
A. yes (1)

Q. Hey, what did the test say about CCN(CC)CCOc1ccc2c(c1)C(=NNC(=O)c1ccccn1)c1cc(OCCN(CC)CC)ccc1-2 ?
A. no (0)

Q. Hey, what did the test say about NNc1nc2sc3c(c2c(=O)[nH]1)CCc1ccccc1-3 ?
A. no (0)

Q. Hey, what did the test say about Cc1cc(NS(=O)(=O)c2ccc(Nc3nc(-c4ccc(O)cc4)cs3)cc2)no1 ?
A. yes (1)

Q. Hey, what did the test say about O=C(O)c1cc(NC(=O)c2ccccc2[N+](=O)[O-])ccc1O ?
A. no (0)

Q. Hey, what did the test say about CCOC(=O)c1nc(NCc2ccccc2F)c2ccccc2n1 ?
A. no (0)
